Exercise: for every item that follows, state its recorded IC50.
Biological target: UniProt:P09917
Sequence (P09917 whole entry): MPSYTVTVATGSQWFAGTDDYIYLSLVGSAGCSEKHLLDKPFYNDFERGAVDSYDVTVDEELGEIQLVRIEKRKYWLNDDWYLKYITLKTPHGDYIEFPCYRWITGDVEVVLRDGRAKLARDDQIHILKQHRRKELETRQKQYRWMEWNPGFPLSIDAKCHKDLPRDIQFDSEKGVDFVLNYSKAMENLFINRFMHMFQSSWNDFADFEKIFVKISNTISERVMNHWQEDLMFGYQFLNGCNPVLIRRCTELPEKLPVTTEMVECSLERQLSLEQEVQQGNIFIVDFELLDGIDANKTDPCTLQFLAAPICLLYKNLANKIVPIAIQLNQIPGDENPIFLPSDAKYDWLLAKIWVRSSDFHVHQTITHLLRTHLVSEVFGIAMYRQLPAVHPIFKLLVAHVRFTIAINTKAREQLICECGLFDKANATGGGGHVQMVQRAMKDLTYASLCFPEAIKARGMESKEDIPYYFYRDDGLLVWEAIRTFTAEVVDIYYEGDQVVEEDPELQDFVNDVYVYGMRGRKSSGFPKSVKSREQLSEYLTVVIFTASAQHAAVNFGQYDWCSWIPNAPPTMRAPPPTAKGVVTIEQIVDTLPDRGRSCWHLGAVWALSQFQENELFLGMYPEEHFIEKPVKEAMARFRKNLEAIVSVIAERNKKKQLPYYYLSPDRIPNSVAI
Experiment: Inhibition of 5-LOX in human PMNL cells assessed as inhibition of LTB4 formation preincubated for 5 mins followed by calcium ionophore A23187 addition and measured after 6 min by HPLC analysis
Assay type: cell-based
Record the result as a number with its unit.

Q: IC50 lookup needed for "O=C(O)[C@@H](c1ccc(OCc2ccc3ccccc3n2)cc1)C1CCCCCC1" , thanks.
Ans: 42 nM

Q: Here is the next molecule: "O=C(O)[C@@H](c1ccc(OCc2ccc3ccccc3n2)cc1)C1CCCC1"
Ans: 220 nM

---

biological target: Arachidonate 5-lipoxygenase-activating protein (Homo sapiens, UniProt P20292); assay: Inhibition of FLAP in human neutrophil assessed as reduction in all-trans isomers of LTB4 and 5-HETE formation using arachidonic acid as substrate preincubated with enzyme for 15 mins followed by substrate addition and A23187 measured after 10 mins by ELISA assay; assay type: cell-based
Sequence (P20292 whole entry): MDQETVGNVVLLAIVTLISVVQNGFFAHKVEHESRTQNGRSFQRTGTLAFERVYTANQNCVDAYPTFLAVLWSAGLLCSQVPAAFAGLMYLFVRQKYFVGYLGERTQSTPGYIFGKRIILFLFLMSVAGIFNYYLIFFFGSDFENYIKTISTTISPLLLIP
measuredAttribute: IC50
Record the result as a number with its unit.

Q: IC50 lookup needed for CC(C)Cc1ccc(C(C)c2nc3ccccc3n2Cc2ccccc2Cl)cc1 (stereo unspecified) , thanks.
Ans: 150 nM

---

molecular target: Arachidonate 5-lipoxygenase-activating protein (Homo sapiens, UniProt P20292); assay: Inhibition of FLAP in human monocyte assessed as reduction in all-trans isomers of LTB4 and 5-HETE formation preincubated with enzyme for 15 mins followed by A23187 addition and measured after 10 mins by ELISA assay; format: cell-based
measuredAttribute: IC50 (nM)
// return numeric value only (unit: nM, not printed)

Q: IC50 lookup needed for CC(C)Cc1ccc(C(C)c2nc3ccccc3n2Cc2ccccc2Cl)cc1 (stereo unspecified) , thanks.
Ans: 40
